target: T1, hPDGFRb.mmh (human, UniProt P09619 33-531); test: SPR, mAb captured, 25 C
T1 construct: Soluble monomeric construct; also called soluble human PDGFR-beta.mmh
T1 sequence (P09619 other isoform, or with tags, fused parts or gaps): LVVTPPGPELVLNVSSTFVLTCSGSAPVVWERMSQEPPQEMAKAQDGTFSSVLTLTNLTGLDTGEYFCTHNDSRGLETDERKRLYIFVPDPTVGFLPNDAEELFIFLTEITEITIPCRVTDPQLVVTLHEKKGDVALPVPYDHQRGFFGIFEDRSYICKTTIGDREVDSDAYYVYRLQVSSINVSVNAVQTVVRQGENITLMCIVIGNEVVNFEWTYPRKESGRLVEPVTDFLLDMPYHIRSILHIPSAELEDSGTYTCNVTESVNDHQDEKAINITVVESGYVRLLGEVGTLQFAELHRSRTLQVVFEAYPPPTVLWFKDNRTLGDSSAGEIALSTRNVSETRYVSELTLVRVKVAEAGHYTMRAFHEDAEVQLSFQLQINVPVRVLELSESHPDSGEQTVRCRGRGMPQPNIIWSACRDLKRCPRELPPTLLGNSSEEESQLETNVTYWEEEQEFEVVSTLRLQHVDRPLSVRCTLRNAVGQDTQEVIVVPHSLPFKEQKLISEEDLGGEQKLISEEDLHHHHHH
pKd: −log10 of the molar value.
Entries annotated with measured pKd

[
  {
    "binder": "H4H3104S (antibody, human IgG4, V domains shown, human IgG4 Fc (H4H prefix)) VH: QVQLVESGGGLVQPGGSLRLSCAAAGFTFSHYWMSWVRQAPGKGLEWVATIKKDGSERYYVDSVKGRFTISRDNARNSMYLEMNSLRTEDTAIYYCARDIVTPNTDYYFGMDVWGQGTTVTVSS VL: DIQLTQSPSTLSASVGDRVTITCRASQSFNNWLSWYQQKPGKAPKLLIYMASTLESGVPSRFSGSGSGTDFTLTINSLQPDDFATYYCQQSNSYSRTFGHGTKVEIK",
    "pKd": 8.79
  },
  {
    "binder": "H1M3374N (antibody, V domains shown, mouse Fc format; also called H2M3374N) VH: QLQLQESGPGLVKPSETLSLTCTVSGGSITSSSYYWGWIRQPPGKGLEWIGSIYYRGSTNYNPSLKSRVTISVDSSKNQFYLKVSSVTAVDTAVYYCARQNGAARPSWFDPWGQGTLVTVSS VL: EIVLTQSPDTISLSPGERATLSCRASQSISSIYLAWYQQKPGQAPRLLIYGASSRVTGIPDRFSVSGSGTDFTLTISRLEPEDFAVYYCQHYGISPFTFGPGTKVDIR",
    "pKd": 8.70
  },
  {
    "binder": "H4H3096S (antibody, human IgG4, V domains shown, human IgG4 Fc (H4H prefix)) VH: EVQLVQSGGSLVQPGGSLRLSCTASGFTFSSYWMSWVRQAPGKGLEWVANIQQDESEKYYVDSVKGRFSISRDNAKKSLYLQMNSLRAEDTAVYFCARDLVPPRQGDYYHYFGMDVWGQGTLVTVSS VL: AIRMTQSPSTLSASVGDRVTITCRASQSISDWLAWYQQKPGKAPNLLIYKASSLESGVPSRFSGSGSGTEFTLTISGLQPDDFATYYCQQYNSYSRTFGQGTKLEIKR",
    "pKd": 8.43
  },
  {
    "binder": "H4H3102S (antibody, human IgG4, V domains shown, human IgG4 Fc (H4H prefix)) VH: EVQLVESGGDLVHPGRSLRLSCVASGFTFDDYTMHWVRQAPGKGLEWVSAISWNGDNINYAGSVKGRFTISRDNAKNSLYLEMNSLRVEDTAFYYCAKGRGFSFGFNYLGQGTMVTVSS VL: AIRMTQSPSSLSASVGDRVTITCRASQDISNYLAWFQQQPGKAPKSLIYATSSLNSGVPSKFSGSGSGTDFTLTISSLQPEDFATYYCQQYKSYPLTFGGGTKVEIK",
    "pKd": 9.05
  }
]
